Origin of the recorded values: patent US5296591A

target: porcine pancreas elastase (Type IV) (Sus scrofa, UniProt P00772); construct: purchased Sigma Chemicals Co; host or cells: porcine pancreas (from the enzyme's name); assay: Protease inhibition assay (in vitro), porcine pancreas elastase; assay type: biochemical; details: IC50 Porcine pancreas elastase, substrate N-succinyl-(Ala)3-p-nitroanilide, enzyme 5 μg/ml final
Sequence (P00772 27-266): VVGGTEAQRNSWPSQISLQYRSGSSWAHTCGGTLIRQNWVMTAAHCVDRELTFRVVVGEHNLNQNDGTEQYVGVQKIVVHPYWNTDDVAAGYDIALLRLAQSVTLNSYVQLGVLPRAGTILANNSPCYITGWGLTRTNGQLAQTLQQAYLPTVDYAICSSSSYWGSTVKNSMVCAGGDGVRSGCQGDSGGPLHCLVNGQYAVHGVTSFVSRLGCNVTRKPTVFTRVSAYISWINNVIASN
Provide the recorded pIC50 for the entries that follow.
Answers are plain numbers, as −log10 of the molar value.

Recorded pIC50, per entry:
molecule="CC(C)C(NC(=O)[C@@H]1CCCN1C(=O)[C@@H](NC(=O)c1ccc(C(=O)NCC(=O)O)cc1)C(C)C)C(=O)C(F)(F)F (mixture of isomers) [Example 13]" tgt="porcine pancreas elastase (Type IV) (Sus scrofa, UniProt P00772)" data_value=5.48
molecule="CC(C)C(NC(=O)[C@@H]1CCCN1C(=O)[C@@H](NC(=O)c1ccc(C(=O)NCC(=O)O)cc1)C(C)C)C(=O)C(F)(F)F (mixture of isomers) [Example 19]" tgt="porcine pancreas elastase (Type IV) (Sus scrofa, UniProt P00772)" data_value=5.52
molecule="CC(C)C(NC(=O)[C@@H]1CCCN1C(=O)[C@@H](NC(=O)c1ccc(C(=O)NCC(=O)O)cc1)C(C)C)C(=O)C(F)(F)F (single isomer, unassigned) [Example 16]" tgt="porcine pancreas elastase (Type IV) (Sus scrofa, UniProt P00772)" data_value=4.52

Attention now turns to another entry.
# input Bench note: what pIC50 did CC(C)C(NC(=O)[C@@H]1CCCN1C(=O)[C@@H](NC(=O)c1ccc(C(=O)NCC(=O)O)cc1)C(C)C)C(=O)C(F)(F)F (single isomer, unassigned) [Example 15] show?
# output 5.70
